Target: Vanilloid receptor (Rattus norvegicus, UniProt Q9ERZ8+Q9WUD2+O35433)
Assay: Ability to inhibit [Ca2+] influx neonatal rat cultured spinal sensory neurons.
Type: functional

compound: CCC(CCc1ccc(O)c(OC)c1)N(CCc1ccccc1)/C(S)=N/CCc1ccccc1 (configuration not stated)
studyTarget: Vanilloid receptor (Rattus norvegicus, UniProt Q9ERZ8+Q9WUD2+O35433)
unitSpec: µM
inequalitySymbol: >
IC50: 30

compound: CCC(CCc1ccc(O)c(OC)c1)N(C)/C(S)=N/CCc1ccccc1 (configuration not stated)
studyTarget: Vanilloid receptor (Rattus norvegicus, UniProt Q9ERZ8+Q9WUD2+O35433)
unitSpec: µM
inequalitySymbol: =
IC50: 27.2

compound: COc1cc(CCC(C)O/C(S)=N/CCc2ccccc2)ccc1O (configuration not stated)
studyTarget: Vanilloid receptor (Rattus norvegicus, UniProt Q9ERZ8+Q9WUD2+O35433)
unitSpec: µM
inequalitySymbol: =
IC50: 9.9

compound: COc1cc(CCC(CCc2ccccc2)O/C(S)=N/CCc2ccccc2)ccc1O (configuration not stated)
studyTarget: Vanilloid receptor (Rattus norvegicus, UniProt Q9ERZ8+Q9WUD2+O35433)
unitSpec: µM
inequalitySymbol: =
IC50: 19.2

compound: Oc1cc2c(cc1O)CN(C(=S)NCCc1ccc(Cl)cc1)CCC2 [CAPSAZEPINE]
studyTarget: Vanilloid receptor (Rattus norvegicus, UniProt Q9ERZ8+Q9WUD2+O35433)
unitSpec: µM
inequalitySymbol: =
IC50: 0.6

compound: COc1cc(CCCC(C)O/C(S)=N/CCc2ccccc2)ccc1O (configuration not stated)
studyTarget: Vanilloid receptor (Rattus norvegicus, UniProt Q9ERZ8+Q9WUD2+O35433)
unitSpec: µM
inequalitySymbol: >
IC50: 30

compound: COc1cc(CC(C)O/C(S)=N/CCc2ccccc2)ccc1O (configuration not stated)
studyTarget: Vanilloid receptor (Rattus norvegicus, UniProt Q9ERZ8+Q9WUD2+O35433)
unitSpec: µM
inequalitySymbol: >
IC50: 30
